The reported numbers originate from patent US20260217652A1.

- assayedTarget: p38 MAPK/MK5 (Homo sapiens, UniProt Q16539)
- Construct: Abcam (MK5) 04-152; 217826
- Sequence (Q16539 whole entry): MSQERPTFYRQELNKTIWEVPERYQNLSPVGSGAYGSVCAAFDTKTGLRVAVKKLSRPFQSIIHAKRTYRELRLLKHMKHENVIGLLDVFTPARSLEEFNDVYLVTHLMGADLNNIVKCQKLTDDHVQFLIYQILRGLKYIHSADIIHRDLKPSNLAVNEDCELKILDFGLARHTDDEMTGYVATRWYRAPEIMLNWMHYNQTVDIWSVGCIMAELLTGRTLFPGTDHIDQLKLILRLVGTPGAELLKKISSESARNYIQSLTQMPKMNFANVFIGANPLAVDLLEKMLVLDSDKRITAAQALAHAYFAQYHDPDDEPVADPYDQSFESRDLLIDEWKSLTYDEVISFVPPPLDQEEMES
- assayProcedure: In vitro activity assay of p38 MAPK/MK5 (Z-LYTE kinase assay kit)
- conditionSet: active p38α, inactive MK5, Ser/Thr 4; 4-hour reaction at 20° C.
quantity: IC50 (µM)

Some solved cases for reference:
Cc1cnc(-c2cccc(C(=O)O)c2)cc1-n1c(C)cc(OCc2ncc(F)cc2F)c(Cl)c1=O = 6.08
Cc1cnc(-c2ccc(F)c([C@](C)(O)CO)c2)c(F)c1-n1c(C)cc(OCc2ncc(F)cc2F)c(Cl)c1=O [Compound 51-P2] = 4.49
CNC(=O)c1cccc(-c2cc(-n3c(C)cc(OCc4ncc(F)cc4F)c(Cl)c3=O)c(C)cn2)c1 = 3.05
Cc1cnc(-c2cccc(C(N)=O)c2)cc1-n1c(C)cc(OCc2ncc(F)cc2F)c(Cl)c1=O = 6.59
Cc1cnc(-c2cccc([C@@](C)(O)CO)c2F)cc1-n1c(C)cc(OCc2ncc(F)cc2F)c(Cl)c1=O [Compound 35-P1] = 4.67

[A] Cc1cnc(-c2cccc(C(N)=O)c2)c(F)c1-n1c(C)cc(OCc2ncc(F)cc2F)c(Cl)c1=O [Compound 30-P1]
[B] Cc1cnc(-c2cccc(C(=O)N(C)C)c2)c(F)c1-n1c(C)cc(OCc2ncc(F)cc2F)c(Cl)c1=O (single isomer, unassigned) [Compound 32-P1]
Larger number for IC50: A , or B ? Answer = label.
A

[P] Cc1cnc(-c2cccc(C(=O)N(C)C)c2)c(F)c1-n1c(C)cc(OCc2ncc(F)cc2F)c(Cl)c1=O [Compound 32]
[Q] CNC(=O)c1cccc(-c2ncc(C)c(-n3c(C)cc(OCc4ncc(F)cc4F)c(Cl)c3=O)c2F)c1 [Compound 31-P1]
For the two items P and Q , which reports the higher IC50 value? Select an item and report its label.
P
(P: 6.25 µM, Q: 4.34 µM)

###

- assayProcedure: Pharmacokinetic evaluation in mice
- Type: in vivo
- conditionSet: mouse, plasma, po, intragastric administration group 5 mg/kg, read-out: Area under curve AUC0-24 h
quantity: AUC(0-t) (ng·h/mL)

Cc1cnc(-c2cccc(C(N)=O)c2)c(F)c1-n1c(C)cc(OCc2ncc(F)cc2F)c(Cl)c1=O [Compound 30-P1] = 2640
Cc1cnc(-c2cccc(C(=O)N(C)C)c2)c(F)c1-n1c(C)cc(OCc2ncc(F)cc2F)c(Cl)c1=O (single isomer, unassigned) [Compound 32-P1] = 2350
CNC(=O)c1cccc(-c2ncc(C)c(-n3c(C)cc(OCc4ncc(F)cc4F)c(Cl)c3=O)c2F)c1 [Compound 31-P1] = 2070

[P] Cc1cnc(-c2cccc(S(C)(=O)=O)c2)c(F)c1-n1c(C)cc(OCc2ncc(F)cc2F)c(Cl)c1=O [Compound 33-P1]
[Q] Cc1cnc(-c2cccc(C(=O)O)c2)c(F)c1-n1c(C)cc(OCc2ncc(F)cc2F)c(Cl)c1=O [Compound 29-P1]
Lab log: flag the item ( P or Q ) with the smaller AUC(0-t) figure. Refer to your chosen entry by its label in the reply.
P
(P: 2800 ng·h/mL, Q: 6490 ng·h/mL)

###

- assayedTarget: p38 MAPK/MK2 (Homo sapiens, UniProt Q16539)
- Construct: Abcam (MK2) 04-152; 79910
- Sequence (Q16539 whole entry): as above
- Sequence (P49137 whole entry partner): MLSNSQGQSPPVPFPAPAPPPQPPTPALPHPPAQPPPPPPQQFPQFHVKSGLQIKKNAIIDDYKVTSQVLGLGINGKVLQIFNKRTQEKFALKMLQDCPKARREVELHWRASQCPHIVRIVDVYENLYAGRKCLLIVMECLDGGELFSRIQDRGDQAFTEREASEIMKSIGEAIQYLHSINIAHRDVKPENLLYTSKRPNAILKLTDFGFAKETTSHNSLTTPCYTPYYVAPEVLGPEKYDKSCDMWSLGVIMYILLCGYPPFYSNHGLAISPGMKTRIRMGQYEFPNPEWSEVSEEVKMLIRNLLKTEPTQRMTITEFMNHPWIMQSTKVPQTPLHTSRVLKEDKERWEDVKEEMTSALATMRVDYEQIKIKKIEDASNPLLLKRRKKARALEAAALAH
- assayProcedure: In vitro activity assay of p38 MAPK/MK2 (Z-LYTE kinase assay kit)
- conditionSet: active p38α, inactive MK2, Ser/Thr 4; 1-hour reaction at 20° C.
quantity: IC50 (nM)

Some compounds with known IC50 results, for comparison:
Cc1ccc(-c2ncc(C)c(-n3c(C)cc(OCc4ncc(F)cc4F)c(Cl)c3=O)c2F)cc1[C@@](C)(O)CO [Compound 52-P1] = 0.12
COC[C@](C)(O)c1c(F)ccc(-c2cc(-n3c(C)cc(OCc4ncc(F)cc4F)c(Cl)c3=O)c(C)cn2)c1F (atropisomer, axis not shown) = 2.25

[1] Cc1cnc(-c2cccc(C(=O)O)c2)c(F)c1-n1c(C)cc(OCc2ncc(F)cc2F)c(Cl)c1=O [Compound 29-P1]
[2] CNC(=O)C(C)(O)c1c(F)ccc(-c2cc(-n3c(C)cc(OCc4ncc(F)cc4F)c(Cl)c3=O)c(C)cn2)c1F (single isomer, unassigned) [Compound 116-P2]
[3] CNC(=O)c1cccc(-c2cc(-n3c(C)cc(OCc4ncc(F)cc4F)c(Cl)c3=O)c(C)cn2)c1F [Compound 20]
[4] Cc1cnc(-c2cccc(C(=O)N(C)C)c2)c(F)c1-n1c(C)cc(OCc2ncc(F)cc2F)c(Cl)c1=O (single isomer, unassigned) [Compound 32-P1]
Order by IC50, ascending. In your reply, arrange the labels in the requested order.
4, 3, 2, 1
